Reported pIC50 by item:
- System Under Test: Factor Xa (Bos taurus)
- Sequence (P00743 41-180 limits assumed): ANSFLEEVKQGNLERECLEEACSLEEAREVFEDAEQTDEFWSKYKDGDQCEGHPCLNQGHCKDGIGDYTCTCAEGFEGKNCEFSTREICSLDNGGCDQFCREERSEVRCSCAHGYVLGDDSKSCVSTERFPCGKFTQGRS
- Measurement Description: Inhibition of Factor Xa in the chromogenic substrate assay (blood coagulation inhibition)
- Format: biochemical
- Conditions: chromogenic substrate S-2222, antithrombin III, plasma; read-out: Anticoagulative Activity IC50 Factor Xa
pIC50: −log10 of the molar value.

Solved cases (3 shown):
{"Molecule": "O=C(NC[C@H](OS(=O)(=O)O)[C@@H](OS(=O)(=O)O)[C@H](OS(=O)(=O)O)[C@@H](COS(=O)(=O)O)OS(=O)(=O)O)Nc1ccc(NC(=O)c2ccc(C(=O)Nc3ccc(NC(=O)NC[C@H](OS(=O)(=O)O)[C@@H](OS(=O)(=O)O)[C@H](OS(=O)(=O)O)[C@@H](COS(=O)(=O)O)OS(=O)(=O)O)cc3)cc2)cc1 [Example 33]", "pIC50": "< 3.19"}
{"Molecule": "O=C(NC[C@H](OS(=O)(=O)O)[C@@H](OS(=O)(=O)O)[C@H](OS(=O)(=O)O)[C@@H](COS(=O)(=O)O)OS(=O)(=O)O)c1ccc(/C=C\\c2ccc(C(=O)NC[C@H](OS(=O)(=O)O)[C@@H](OS(=O)(=O)O)[C@H](OS(=O)(=O)O)[C@@H](COS(=O)(=O)O)OS(=O)(=O)O)cc2)cc1 [Example 3]", "pIC50": "< 3.14"}
{"Molecule": "O=S(=O)(O)OC[C@@H](OS(=O)(=O)O)[C@@H](OS(=O)(=O)O)[C@H](OS(=O)(=O)O)[C@H](CNS(=O)(=O)c1cccc2c(S(=O)(=O)NC[C@H](OS(=O)(=O)O)[C@@H](OS(=O)(=O)O)[C@H](OS(=O)(=O)O)[C@@H](COS(=O)(=O)O)OS(=O)(=O)O)cccc12)OS(=O)(=O)O [Example 11]", "pIC50": "< 3.15"}

Consider the molecule O=C(NC[C@H](OS(=O)(=O)O)[C@@H](OS(=O)(=O)O)[C@H](OS(=O)(=O)O)[C@@H](COS(=O)(=O)O)OS(=O)(=O)O)c1ccc(CCc2ccc(C(=O)NC[C@H](OS(=O)(=O)O)[C@@H](OS(=O)(=O)O)[C@H](OS(=O)(=O)O)[C@@H](COS(=O)(=O)O)OS(=O)(=O)O)cc2)cc1 [Example 10] and give its measured pIC50.
< 3.15

Quick check: pIC50 of CN(C[C@H](OS(=O)(=O)O)[C@@H](OS(=O)(=O)O)[C@H](OS(=O)(=O)O)[C@@H](COS(=O)(=O)O)OS(=O)(=O)O)C(=O)c1ccc2c(c1)C(=O)c1cc(C(=O)N(C)C[C@H](OS(=O)(=O)O)[C@@H](OS(=O)(=O)O)[C@H](OS(=O)(=O)O)[C@@H](COS(=O)(=O)O)OS(=O)(=O)O)ccc1-2 [Example 37] ?
< 3.15

Item under review: O=C(NC[C@H](OS(=O)(=O)O)[C@@H](OS(=O)(=O)O)[C@H](OS(=O)(=O)O)[C@@H](COS(=O)(=O)O)OS(=O)(=O)O)c1ccc(Cc2ccc(C(=O)NC[C@H](OS(=O)(=O)O)[C@@H](OS(=O)(=O)O)[C@H](OS(=O)(=O)O)[C@@H](COS(=O)(=O)O)OS(=O)(=O)O)cc2)cc1 [Example 16] . Reported pIC50?
< 3.14

// pIC50 lookup, key: Cc1c(NC(=O)NC[C@H](OS(=O)(=O)O)[C@@H](OS(=O)(=O)O)[C@H](OS(=O)(=O)O)[C@@H](COS(=O)(=O)O)OS(=O)(=O)O)cccc1NC(=O)NC[C@H](OS(=O)(=O)O)[C@@H](OS(=O)(=O)O)[C@H](OS(=O)(=O)O)[C@@H](COS(=O)(=O)O)OS(=O)(=O)O [Example 26]
< 3.13
